Assay: Parallel artificial membrane permeability assay (PAMPA)
Format: in vitro ADME
Conditions: pH 7.4, replicate 2
Assign true whenever Papp 2 (PAMPA) does not fall below 3 ×10⁻⁶ cm/s; assign false whenever it does.

Take a look at these entries with their results.
INSERT INTO results (smiles_text, qualitative_label) VALUES
  ('CC(=NOCc1ccc(F)c(F)c1)c1c(C)cc(=O)n(O)c1O', 'false'),
  ('CC(=NOCc1ccc(OCc2ccccc2)cc1)c1c(C)cc(=O)n(O)c1O', 'true'),
  ('CC(=NOCc1ccc(C)cc1)c1c(C)cc(=O)n(O)c1O', 'false');

# check: Papp 2 (PAMPA) of CC(=NOCc1ccc2ccccc2c1)c1c(C)cc(=O)n(O)c1O is greater than or equal to 3 ×10⁻⁶ cm/s
true

# check: Papp 2 (PAMPA) of CC(=NOCc1cc(F)ccc1F)c1c(C)cc(=O)n(O)c1O is greater than or equal to 3 ×10⁻⁶ cm/s
false

* * *

Assay: Microsome stability
Format: in vitro ADME, human
Details: both sexes; human liver microsomes, 1 µM compound, 30 min, NADPH
PARAMETER: half-life at 1 µM (min)
Report only the number, with the unit min understood.

// recorded half-life at 1 µM for CC(C)c1nc(CN(C)C(=O)N[C@H](C(=O)N[C@@H](Cc2ccccc2)C[C@H](O)[C@H](Cc2ccccc2)NC(=O)OCc2cncs2)C(C)C)cs1 [Ritonavir, ritonavir, reference compound] : 23.3

* * *

Tested on: primary human hepatocytes (PHHs)
Test: Primary human hepatocyte cytotoxicity (MTS assay)
Type: cell-based
Details: 72 h, highest concentration tested 100 µM, mean ± SD, read-out: PHH CC50
PARAMETER: CC50 (µM)
Report only the number, with the unit µM understood.

// recorded CC50 for CC(=NOCc1cccc(F)c1)c1c(C)cc(=O)n(O)c1O [Compound 1618] : 93.8

* * *

Experiment: Solubility limit, turbidimetric assay
Type: physicochemical
Details: pH 7.4, replicate 2; upper limit 200 µM
Below, each entry is listed with its recorded Sol 2 (solubility limit).

These recorded examples may help you get a feel for the data.
INSERT INTO results (smiles_text, parameter, reported_value) VALUES
  ('CC(=NOCc1ccc(C(F)(F)F)cc1)c1c(C)cc(=O)n(O)c1O', 'Sol 2 (solubility limit)', '> 200 µM'),
  ('CC(=NOCc1ccccc1C)c1c(C)cc(=O)n(O)c1O', 'Sol 2 (solubility limit)', '100 µM'),
  ('CC(=NOCc1ccc(OCc2ccc(C(C)(C)C)cc2)cc1)c1c(C)cc(=O)n(O)c1O', 'Sol 2 (solubility limit)', '100 µM'),
  ('CC(=NOCc1ccc(F)c(F)c1)c1c(C)cc(=O)n(O)c1O', 'Sol 2 (solubility limit)', '> 200 µM');

// recorded Sol 2 (solubility limit) for CC(=NOCc1ccc(C)cc1)c1c(C)cc(=O)n(O)c1O : > 200 µM

// recorded Sol 2 (solubility limit) for CC(=NOCc1ccc(OCc2ccc3ccccc3c2)cc1)c1c(C)cc(=O)n(O)c1O : > 200 µM

// recorded Sol 2 (solubility limit) for CC(=NOCc1cccc(C)c1)c1c(C)cc(=O)n(O)c1O : > 200 µM

// recorded Sol 2 (solubility limit) for CC(=NOCc1ccc(Br)cc1)c1c(C)cc(=O)n(O)c1O : > 200 µM

// recorded Sol 2 (solubility limit) for CC(=NOCc1cc(F)ccc1F)c1c(C)cc(=O)n(O)c1O : 100 µM

The reported measurements were obtained from paper PMC11784145.
